Molecular target: SRβ (30-kD β-subunit of the SRP receptor) in SR liposomes (Canis lupus, UniProt A0A8I3Q3L6)
Sequence (A0A8I3Q3L6 1-271): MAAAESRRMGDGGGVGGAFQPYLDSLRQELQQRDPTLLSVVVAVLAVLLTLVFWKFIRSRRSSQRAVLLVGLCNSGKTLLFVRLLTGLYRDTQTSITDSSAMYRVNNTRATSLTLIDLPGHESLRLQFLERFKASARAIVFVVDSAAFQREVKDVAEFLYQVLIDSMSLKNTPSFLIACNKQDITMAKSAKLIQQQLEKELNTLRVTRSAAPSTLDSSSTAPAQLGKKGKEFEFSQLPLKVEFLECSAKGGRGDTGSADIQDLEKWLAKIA
Sequence (P06625 1-638 partner): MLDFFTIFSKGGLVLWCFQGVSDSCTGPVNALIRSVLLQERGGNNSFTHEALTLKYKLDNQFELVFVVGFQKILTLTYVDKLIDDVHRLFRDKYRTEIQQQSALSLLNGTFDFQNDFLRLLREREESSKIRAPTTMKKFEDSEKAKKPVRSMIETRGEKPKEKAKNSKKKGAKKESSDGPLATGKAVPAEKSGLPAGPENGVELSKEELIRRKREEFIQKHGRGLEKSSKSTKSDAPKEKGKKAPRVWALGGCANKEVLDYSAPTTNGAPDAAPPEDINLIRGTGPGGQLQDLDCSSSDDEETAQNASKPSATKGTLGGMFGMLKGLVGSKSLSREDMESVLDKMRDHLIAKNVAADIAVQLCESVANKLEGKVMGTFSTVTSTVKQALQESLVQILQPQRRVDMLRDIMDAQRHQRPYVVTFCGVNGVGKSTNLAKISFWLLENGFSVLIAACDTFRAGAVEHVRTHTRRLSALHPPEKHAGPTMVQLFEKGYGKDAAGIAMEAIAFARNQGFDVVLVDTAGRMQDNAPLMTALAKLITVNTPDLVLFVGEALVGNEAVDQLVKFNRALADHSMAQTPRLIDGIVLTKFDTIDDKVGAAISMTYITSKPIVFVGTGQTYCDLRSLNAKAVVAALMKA
Assay: UV cross-linking of alpha-[…]GTP, saturation, SDS-PAGE and PhosphorImaging
pKd: −log10 of the molar value.
measured_endpoint: pKd

>>> number("Nc1nc2c(ncn2[C@@H]2O[C@H](COP(=O)(O)OP(=O)(O)OP(=O)(O)O)[C@@H](O)[C@H]2O)c(=O)[nH]1 [GTP]")
7.70
